Values were extracted from patent US11364275B2.

# Test system: rabbit red blood cells
# PROTOCOL TEXT: Hemolytic activity
# Assay type: cell-based
# DETAILS: 16 μg/mL; relative to Triton X-100
Where a SMILES comes first, the peptide text is derived from it. [ ]: non-standard residue; d: D form. The star is where a group is joined. Heptanoyl = CCCCCCC(=O)*; Octanoyl = CCCCCCCC(=O)*; Dab = NCC[C@H](N)C(=O)O
Catalogue of Hemolysis readings, one per entry.
Give the value in % but do not write % after it.

CCCCCCC(=O)N[C@@H](CCN)C(=O)N[C@@H](Cc1ccccc1)C(=O)N[C@@H](CCN)C(=O)N[C@H](Cc1ccccc1)C(=O)N[C@@H](CC(C)C)C(=O)N[C@@H](CCN)C(=O)N[C@@H](C(=O)N[C@@H](CC(C)C)C(=O)N[C@@H](CO)C(N)=O)C(C)C [Analogue 4] (Heptanoyl-[Dab]F[Dab][dF]L[Dab][dV]LS-NH2) : 0.28

We next turn to a different compound, shown below.
[in] Supply Hemolysis value. Item: CCCCCCCC(=O)N[C@@H](CCN)C(=O)N[C@H](C(=O)N[C@@H](CCN)C(=O)N[C@H](Cc1ccccc1)C(=O)N[C@@H](CC(C)C)C(=O)N[C@@H](CCN)C(=O)N[C@@H](C(=O)N[C@@H](CC(C)C)C(=O)N[C@@H](CCN)C(N)=O)C(C)C)[C@@H](C)CC [Analogue 9] (Octanoyl-[Dab]I[Dab][dF]L[Dab][dV]L[Dab]-NH2)
[out] 0.52

----------
# PROTOCOL TEXT: Cytotoxicity, MTT assay
# Assay type: cell-based, human
# DETAILS: human, HEK 293 cells; HEK 293; 90 μg/ml; 24 h; read-out: Viability
Where a SMILES comes first, the peptide text is derived from it. [ ]: non-standard residue; d: D form. The star is where a group is joined. Dab = NCC[C@H](N)C(=O)O; Cbz = O=C(OCc1ccccc1)*
ASSAY METRIC: viability at 24 h, 90 µg/mL (%)
Give the value in % but do not write % after it.

[in] Supply viability at 24 h, 90 µg/mL value. Item: CC[C@H](C)[C@H](NC(=O)[C@H](CCN)NC(=O)OCc1ccccc1)C(=O)N[C@@H](CCN)C(=O)N[C@H](Cc1ccccc1)C(=O)N[C@@H](CC(C)C)C(=O)N[C@@H](CCN)C(=O)N[C@@H](C(=O)N[C@@H](CC(C)C)C(=O)N[C@@H](CO)C(N)=O)C(C)C [Analogue 15] (Cbz-[Dab]I[Dab][dF]L[Dab][dV]LS-NH2)
[out] 67.1

----------
# Tested on: rabbit red blood cells
# PROTOCOL TEXT: Hemolytic activity
# Assay type: cell-based
# DETAILS: 128 μg/mL; relative to Triton X-100
Where a SMILES comes first, the peptide text is derived from it. [ ]: non-standard residue; d: D form. The star is where a group is joined. ξ: configuration not given here. Thr(3ξ) = CC(O)[C@H](N)C(=O)O; Decanoyl = CCCCCCCCCC(=O)*; Heptanoyl = CCCCCCC(=O)*; Octanoyl = CCCCCCCC(=O)*; Dab = NCC[C@H](N)C(=O)O; Hexanoyl = CCCCCC(=O)*
Respond with criterion met for Hemolysis values of 2% and above, criterion not met for values below.

Example entries begin here.
CCCCCCC(=O)N[C@@H](CCN)C(=O)N[C@@H](Cc1ccccc1)C(=O)N[C@@H](CCN)C(=O)N[C@H](Cc1ccccc1)C(=O)N[C@@H](CC(C)C)C(=O)N[C@@H](CCN)C(=O)N[C@@H](C(=O)N[C@@H](CC(C)C)C(=O)N[C@@H](CO)C(N)=O)C(C)C [Analogue 4] (Heptanoyl-[Dab]F[Dab][dF]L[Dab][dV]LS-NH2) : criterion not met
CCCCCC(=O)N[C@@H](CCN)C(=O)N[C@H](C(=O)N[C@@H](CCN)C(=O)N[C@H](Cc1ccccc1)C(=O)N[C@@H](CC(C)C)C(=O)N[C@@H](CCN)C(=O)N[C@@H](C(=O)N[C@@H](CC(C)C)C(=O)N[C@@H](CO)C(N)=O)C(C)C)[C@@H](C)CC [Analogue 1] (Hexanoyl-[Dab]I[Dab][dF]L[Dab][dV]LS-NH2) : criterion not met
CCCCCCCC(=O)N[C@@H](CCN)C(=O)N[C@H](C(=O)N[C@@H](CCN)C(=O)N[C@H](Cc1ccccc1)C(=O)N[C@@H](CC(C)C)C(=O)N[C@@H](CCN)C(=O)N[C@@H](C(=O)N[C@@H](CC(C)C)C(=O)N[C@@H](CCN)C(N)=O)C(C)C)[C@@H](C)CC [Analogue 9] (Octanoyl-[Dab]I[Dab][dF]L[Dab][dV]L[Dab]-NH2) : criterion met
CCCCCCCCCC(=O)N[C@@H](CCN)C(=O)N[C@H](C(=O)N[C@H](C(=O)N[C@H](CC(C)C)C(=O)N[C@@H](CC(C)C)C(=O)N[C@@H](CCN)C(=O)N[C@@H](C(=O)N[C@@H](CC(C)C)C(=O)N[C@@H](CO)C(N)=O)C(C)C)C(C)O)[C@@H](C)CC (stereo partly drawn) [Analogue 13] (Decanoyl-[Dab]I[Thr(3ξ)][dL]L[Dab][dV]LS-NH2) : criterion met

Let us examine a further case.
[in] Is Hemolysis at least 2%? Consider CCCCCCCCCC(=O)N[C@@H](CCN)C(=O)N[C@H](C(=O)N[C@@H](CCN)C(=O)N[C@H](Cc1ccccc1)C(=O)N[C@@H](CC(C)C)C(=O)N[C@@H](CCN)C(=O)N[C@@H](C(=O)N[C@@H](CC(C)C)C(=O)N[C@@H](CO)C(N)=O)C(C)C)[C@@H](C)CC [Analogue 12] (Decanoyl-[Dab]I[Dab][dF]L[Dab][dV]LS-NH2)
[out] criterion met
